Where do the numbers come from? From paper PMC11742250.

experiment: in vitro; type: in vitro ADME, human; settings: human, Caco-2, pH 9, Papp × 10^−4 (cm/s) (A→B)
endpoint name: Papp A→B at 180 min, 100 μg/mL (×10⁻⁶ cm/s)
Value expressed in ×10⁻⁶ cm/s; do not type the unit.

Q: Sample O=C(/C=C/c1ccc(O)cc1)OC[C@H]1O[C@@H](Oc2c(-c3ccc(O)cc3)oc3cc(O)cc(O)c3c2=O)[C@H](O)[C@@H](O)[C@@H]1O [Tiliroside] — what was its Papp A→B at 180 min, 100 μg/mL?
Ans: 56

====

assay: in vitro; format: in vitro ADME, human; conditions: human, Caco-2, pH 6, RB→A/A→B value
Below is a list of entries, each paired with its recorded efflux ratio at 180 min value.

Q: Sample O=C(/C=C/c1ccc(O)cc1)OC[C@H]1O[C@@H](Oc2c(-c3ccc(O)cc3)oc3cc(O)cc(O)c3c2=O)[C@H](O)[C@@H](O)[C@@H]1O [Tiliroside] — what was its efflux ratio at 180 min?
Ans: ~1

Would you kindly look at the next entry?
Q: Sample C[C@@H]1CC[C@]2(C(=O)O)CC[C@]3(C)C(=CC[C@@H]4[C@@]5(C)C[C@@H](O)[C@@H](O)C(C)(C)[C@@H]5CC[C@]43C)[C@@H]2[C@]1(C)O — what was its efflux ratio at 180 min?
Ans: ~1

====

assay: in vitro; format: in vitro ADME, human; settings: human, Caco-2, pH 6, Papp × 10^−4 (cm/s) (B→A)
endpoint name: Papp B→A at 180 min, 100 μg/mL (×10⁻⁶ cm/s)
Value expressed in ×10⁻⁶ cm/s; do not type the unit.

Q: Sample O=C(/C=C/c1ccc(O)cc1)OC[C@H]1O[C@@H](Oc2c(-c3ccc(O)cc3)oc3cc(O)cc(O)c3c2=O)[C@H](O)[C@@H](O)[C@@H]1O [Tiliroside] — what was its Papp B→A at 180 min, 100 μg/mL?
Ans: 614

====

Below is a list of entries, each paired with its recorded Papp at 180 min value.
Assay: in vitro
Format: in vitro ADME, human
Conditions: human, Caco-2
Protocol: A precise amount of FRLE reserve solution is diluted to concentrations of 50, 100, and 150 μg/mL, representing the low, medium, and high concentrations of FRLE. […] In the formula, 1.5 represents the volume of the test solution added to the B-side chamber (mL), 0.5 represents the volume of the test solution added to the A-side chamber (mL), and 0.2 is the volume of each sample taken (mL). […] The apparent permeability coefficient Papp (cm/s) is calculated using the following formula ([Lu et al., 2020]): […]

Q: Sample O=C(/C=C/c1ccc(O)cc1)OC[C@H]1O[C@@H](Oc2c(-c3ccc(O)cc3)oc3cc(O)cc(O)c3c2=O)[C@H](O)[C@@H](O)[C@@H]1O [Tiliroside] — what was its Papp at 180 min?
Ans: 0.042 to 0.808 ×10⁻⁶ cm/s

Would you kindly look at the next entry?
Q: Sample C[C@@H]1CC[C@]2(C(=O)O)CC[C@]3(C)C(=CC[C@@H]4[C@@]5(C)C[C@@H](O)[C@@H](O)C(C)(C)[C@@H]5CC[C@]43C)[C@@H]2[C@]1(C)O — what was its Papp at 180 min?
Ans: 0.754 to 26.9 ×10⁻⁶ cm/s

====

tested on: P-gp; experiment: in vitro; format: in vitro ADME, human; settings: human, Caco-2, Papp × 10^−4 (cm/s) (B→A)
endpoint name: Papp B→A at 180 min, 100 μg/mL (×10⁻⁶ cm/s)
Value expressed in ×10⁻⁶ cm/s; do not type the unit.

Q: Sample O=C(/C=C/c1ccc(O)cc1)OC[C@H]1O[C@@H](Oc2c(-c3ccc(O)cc3)oc3cc(O)cc(O)c3c2=O)[C@H](O)[C@@H](O)[C@@H]1O [Tiliroside] — what was its Papp B→A at 180 min, 100 μg/mL?
Ans: 226
